# protocol_details: Study 2, Part 2: lenalidomide-temsirolimus pharmacokinetic interaction, open-label crossover in healthy subjects
# Format: in vivo, human
# condition_summary: human; temsirolimus 25 mg IV alone (n = 14), whole blood; geometric mean (geometric CV %)
assay_metric: AUC(0-t)
Remember to put the unit after the number in your answer.

Give its AUC(0-t) value. Item: CO[C@H]1C[C@@H]2CC[C@@H](C)[C@@](O)(O2)C(=O)C(=O)N2CCCC[C@H]2C(=O)O[C@H]([C@H](C)C[C@@H]2CC[C@@H](OC(=O)C(C)(CO)CO)[C@H](OC)C2)CC(=O)[C@H](C)/C=C(\C)[C@@H](O)[C@@H](OC)C(=O)[C@H](C)C[C@H](C)/C=C/C=C/C=C/1C [Temsirolimus] 2670 ng·h/mL

----------
# protocol_details: Study 1: lenalidomide-digoxin pharmacokinetic interaction, double-blind placebo-controlled crossover in healthy subjects
# condition_summary: human, plasma, oral, 0.5 mg
assay_metric: AUC(0-t) (ng·h/mL)
Give the value in ng·h/mL but do not write ng·h/mL after it.

For "C[C@H]1O[C@@H](O[C@H]2[C@@H](O)C[C@H](O[C@H]3[C@@H](O)C[C@H](O[C@H]4CC[C@@]5(C)[C@H](CC[C@@H]6[C@@H]5C[C@@H](O)[C@]5(C)[C@@H](C7=CC(=O)OC7)CC[C@]65O)C4)O[C@@H]3C)O[C@@H]2C)C[C@H](O)[C@@H]1O" , what is its reported AUC(0-t)? 19.1

----------
# protocol_details: Study 2, Part 2: lenalidomide-temsirolimus pharmacokinetic interaction, open-label crossover in healthy subjects
# Assay type: in vivo, human
# condition_summary: human, oral; lenalidomide 25 mg alone (n = 17), plasma; geometric mean (geometric CV %)
# Procedure: Study 2, Part 2 was designed as an open-label, fixed-sequence, 3-period, crossover trial. In Period 1, subjects received a single oral dose of 25 mg lenalidomide; in Period 2, subjects received a single dose of temsirolimus 25 mg via a 30-min intravenous (IV) infusion; and in Period 3, subjects received both a single 25 mg oral dose of lenalidomide and a single 25 mg IV dose of temsirolimus. […]
assay_metric: AUC(0-inf) (ng·h/mL)
# output: bare number, implied unit ng·h/mL

Requested field: AUC(0-inf). Item: Nc1cccc2c1CN(C1CCC(=O)NC1=O)C2=O (stereo not shown) [Lenalidomide] 1350

----------
# protocol_details: Study 2, Part 2: lenalidomide-temsirolimus pharmacokinetic interaction, open-label crossover in healthy subjects
# Assay type: in vivo, human
# condition_summary: human, plasma and urine; lenalidomide 25 mg + temsirolimus 25 mg IV (n = 11); geometric mean (geometric CV %); read-out: CLR (renal clearance)
assay_metric: CL renal (mL/min)
Quick note: give the figure in mL/min, leave out the unit.

What value of measured CL renal is listed for Nc1cccc2c1CN(C1CCC(=O)NC1=O)C2=O (stereo not shown) [Lenalidomide] ? 229

----------
# protocol_details: Study 1: lenalidomide-digoxin pharmacokinetic interaction, double-blind placebo-controlled crossover in healthy subjects
# condition_summary: human, plasma, oral, 0.5 mg
assay_metric: Cmax (ng/mL)
Return type: number; implicit unit ng/mL.

Name the recorded Cmax for "C[C@H]1O[C@@H](O[C@H]2[C@@H](O)C[C@H](O[C@H]3[C@@H](O)C[C@H](O[C@H]4CC[C@@]5(C)[C@H](CC[C@@H]6[C@@H]5C[C@@H](O)[C@]5(C)[C@@H](C7=CC(=O)OC7)CC[C@]65O)C4)O[C@@H]3C)O[C@@H]2C)C[C@H](O)[C@@H]1O" . 1.69

----------
# protocol_details: Study 2, Part 1: lenalidomide-quinidine pharmacokinetic interaction, open-label crossover in healthy subjects
# Format: in vivo, human
# condition_summary: human, oral; lenalidomide 25 mg alone (n = 14), plasma; geometric mean (geometric CV %)
assay_metric: AUC(0-t) (ng·h/mL)
Give the value in ng·h/mL but do not write ng·h/mL after it.

Entry Nc1cccc2c1CN(C1CCC(=O)NC1=O)C2=O (stereo not shown) [Lenalidomide] : reported AUC(0-t) = ? 1290

----------
# protocol_details: Study 2, Part 2: lenalidomide-temsirolimus pharmacokinetic interaction, open-label crossover in healthy subjects
# Type: in vivo, human
# condition_summary: human; temsirolimus 25 mg IV + lenalidomide 25 mg (n = 11), whole blood; geometric mean (geometric CV %)
assay_metric: AUC(0-t) (ng·h/mL)
Answer in ng·h/mL, number only, no unit symbol.

Return reported AUC(0-t); argument: CO[C@H]1C[C@@H]2CC[C@@H](C)[C@@](O)(O2)C(=O)C(=O)N2CCCC[C@H]2C(=O)O[C@H]([C@H](C)C[C@@H]2CC[C@@H](OC(=O)C(C)(CO)CO)[C@H](OC)C2)CC(=O)[C@H](C)/C=C(\C)[C@@H](O)[C@@H](OC)C(=O)[C@H](C)C[C@H](C)/C=C/C=C/C=C/1C [Temsirolimus] 2570

----------
# protocol_details: Study 2, Part 2: lenalidomide-temsirolimus pharmacokinetic interaction, open-label crossover in healthy subjects
# Assay type: in vivo, human
# condition_summary: human; lenalidomide 25 mg + temsirolimus 25 mg IV (n = 11), plasma; geometric mean (geometric CV %)
assay_metric: half-life (h)
Reply with just the number (in h).

Value lookup for half-life; key = Nc1cccc2c1CN(C1CCC(=O)NC1=O)C2=O (stereo not shown) [Lenalidomide] 2.69

----------
# protocol_details: Study 2, Part 1: lenalidomide-quinidine pharmacokinetic interaction, open-label crossover in healthy subjects
# Type: in vivo, human
# condition_summary: human, oral, 600 mg twice daily; plasma, Day 4; CV % 24.3
assay_metric: Cmax (ng/mL)
Give a bare numeral; the unit ng/mL is implied.

# input molecule: "C=C[C@H]1C[N@@]2CC[C@H]1C[C@@H]2[C@@H](O)c1ccnc2ccc(OC)cc12" ; wanted: its Cmax 2350

----------
# protocol_details: Study 2, Part 2: lenalidomide-temsirolimus pharmacokinetic interaction, open-label crossover in healthy subjects
# Format: in vivo, human
# condition_summary: human; temsirolimus 25 mg IV alone (n = 14), whole blood; median (range)
assay_metric: Tmax (min)
Write the value in min as a bare number.

What Tmax value was documented for this molecule, CO[C@H]1C[C@@H]2CC[C@@H](C)[C@@](O)(O2)C(=O)C(=O)N2CCCC[C@H]2C(=O)O[C@H]([C@H](C)C[C@@H]2CC[C@@H](OC(=O)C(C)(CO)CO)[C@H](OC)C2)CC(=O)[C@H](C)/C=C(\C)[C@@H](O)[C@@H](OC)C(=O)[C@H](C)C[C@H](C)/C=C/C=C/C=C/1C [Temsirolimus] ? 28.2

----------
# protocol_details: Study 1: lenalidomide-digoxin pharmacokinetic interaction, double-blind placebo-controlled crossover in healthy subjects
# condition_summary: human, plasma, oral, 0.5 mg
assay_metric: AUC(0-inf) (µg·h/mL)
Kindly provide the numeric value in µg·h/mL only, without the unit symbol.

Suppose we examine the compound C[C@H]1O[C@@H](O[C@H]2[C@@H](O)C[C@H](O[C@H]3[C@@H](O)C[C@H](O[C@H]4CC[C@@]5(C)[C@H](CC[C@@H]6[C@@H]5C[C@@H](O)[C@]5(C)[C@@H](C7=CC(=O)OC7)CC[C@]65O)C4)O[C@@H]3C)O[C@@H]2C)C[C@H](O)[C@@H]1O [Digoxin] ; what AUC(0-inf) value has been reported? 0.0263

----------
# protocol_details: Study 2, Part 1: lenalidomide-quinidine pharmacokinetic interaction, open-label crossover in healthy subjects
# Format: in vivo, human
# condition_summary: human, plasma and urine, oral; lenalidomide 25 mg alone (n = 14); geometric mean (geometric CV %); read-out: CLR (renal clearance)
assay_metric: CL renal (mL/min)
Write the number in mL/min without appending the unit.

Tell me the measured CL renal of Nc1cccc2c1CN(C1CCC(=O)NC1=O)C2=O (stereo not shown) [Lenalidomide] , please. 227

----------
# protocol_details: clinical
# condition_summary: human, in vivo, 10 mg
assay_metric: half-life (h)
The response must be a number in h with no trailing unit.

Field request: half-life | item: Nc1cccc2c1CN(C1CCC(=O)NC1=O)C2=O (stereo not shown) [Lenalidomide] 2.4

----------
# protocol_details: clinical
# condition_summary: human, in vivo, 10 mg
# Description: Study 1 was designed as a double-blind, placebo-controlled, randomized, 2-period, crossover trial. […] For analysis of lenalidomide in plasma and urine, the assay ranges were 5–1,000 and 100–20,000 ng/mL, respectively, and the details of methods were described previously. […] H7]-temsirolimus were quantitatively extracted from whole blood sample by protein precipitation extraction. […]
assay_metric: Cmax
Give the value; after it, write the unit.

Which measured Cmax value corresponds to Nc1cccc2c1CN(C1CCC(=O)NC1=O)C2=O (stereo not shown) [Lenalidomide] ? 119 ng/mL

----------
# protocol_details: Study 2, Part 2: lenalidomide-temsirolimus pharmacokinetic interaction, open-label crossover in healthy subjects
# Assay type: in vivo, human
# condition_summary: human; temsirolimus 25 mg IV alone (n = 14), whole blood; geometric mean (geometric CV %)
assay_metric: AUC(0-inf) (ng·h/mL)
Give the value in ng·h/mL but do not write ng·h/mL after it.

Look at this molecule and give its reported AUC(0-inf). CO[C@H]1C[C@@H]2CC[C@@H](C)[C@@](O)(O2)C(=O)C(=O)N2CCCC[C@H]2C(=O)O[C@H]([C@H](C)C[C@@H]2CC[C@@H](OC(=O)C(C)(CO)CO)[C@H](OC)C2)CC(=O)[C@H](C)/C=C(\C)[C@@H](O)[C@@H](OC)C(=O)[C@H](C)C[C@H](C)/C=C/C=C/C=C/1C [Temsirolimus] 2800
